- targetOrTestSystem: LutR (LutR-FL, full-length)
- Construct: full-length residues 2-240, N-terminal His6 and TEV site (pMCSG7-derived vector), His6-tagged protein purified and apparently tag kept
- assayOverview: microscale thermophoresis (label-free)
- settings: 8 μM LutR; 20 mM Tris-HCl pH 7.5, 250 mM NaCl, 0.02% β-mercaptoethanol; free protein without DNA; effector
metric: pKd
# pKd = -log10(concentration in molar units)

// field: pKd; key: C[C@H](O)C(=O)O [L-lactate] ; value = 2.64
